Test: soluble on expression in E. coli; label from the status in PepcDB or PDB records
Quantity Name: soluble on expression in E. coli

Recorded results for 4 sequences are shown here.
Enquiry: Which soluble on expression in E. coli is listed for `MGSDKIHHHHHHMNIYDQLQAVEDRYEELGELLSDPDVVSDTKRFMELSREEANSRETVAVYREYKQVVQNIADAQEMIKDASGDPELEEMAKEELKNSKVAKEEYEEKLRFLLLPKDPNDDKNIILEIRGAAGGDEAALFAGDLLNMYQKYAENQGWKFEVMEASANGVGGLKEVVAMVSGQSVYSKLKYESGAHRVQRVPVTESQGRVHTSTATVLVMPEVEEVEYEIDPKDLRVDIYHASGAGGQNVNKVATAVRIIHLPTNIKVEMQEERTQQKNRDKAMKIIRARVADHFAQIAQDEQDAERKSTVGTGDRSERIRTYNFPQNRVTDHRIGLTLQKLDSILSGKLDEVIDALILYDQTQKLEELNK` ?
Return: soluble

Enquiry: Lookup `MSLGGEVRGPVAVADFAKHVAQLHADGDIGFSKEYEAIQGEALNDEYPSENSQHPENKGKNRYLNVIAYDHSRVHLRQVPGQKKHLDYINANFIDGYQKPRAFIGTQGPLPGTFDCFWRMVWEQRVAVIVMITNLVERGRRKCDMYWPKDGTETYGIIQVRLVKEDVMATYTVRTLHIKHLKMKKKKQSQMEKTVYQYHYTNWPDHGTPDHPLPVINFVKKSTTANLPDGGPIVVHSSAGVGRTGTFIVLDAMLKQIEAKGSLNVFGFLRYIRAQRNYLVQTEEQYIFIHDALVEAITSGETNEGHHHHHH`
Return: soluble

Enquiry: Lookup `MGSDKIHHHHHHMVGENMDIFVSDYEKQYKEILTGFDPTTFSETWVENQQWQLDFYVEKTRNNQDVFDLLNHESSVYLDGQEFVVKQLKRGAVGKIVYSEVTATHIYFTMQDDYQYNAISGSKSAKDCLTHIFAADKQGFSFELIDKNKVLENITQENFGNGNLLKLVQEVLEDYKLVMLADNKRLTFIPSEDYGEHTENEIRYNKHTNEVDFDIDTLSLRTQIKGYGKVDSNGNNYFPPVTFTSPESAKWGVRIQEPLSDERYTTSSSMLRRLKLELQDYPATTGNISLKLKYECGKGDYVMFVYEPLGLLYEVQIVAYKKYIFTNKPPELTLSNNKKTMVSIMVQLAKAIKRGAK`
Return: not soluble

Enquiry: Lookup `MQTDSLSPSPNPVSPVPLNNPTSAPRYGTVIPNRIFVGGIDFKTNESDLRKFFSQYGSVKEVKIVNDRAGVSKGYGFVTFETQEDAQKILQEAEKLNYKDKKLNIGPAIRKQQVGIPRSSIMPAAGTMYLTTSTGYPYTYHNGVAYFHTPEVTSVPPPWPSRSVCSSPVMVAQPIYQQPAYHYQATTQYLPGQWQWSVPQPSASSAPFLYLQPSEVIYQPVEIAQDGGCVPPPLSLMETSVPEPYSDHGVQATYHQVYAPSAITMPAPVMQPEPIKTVWSIHY`
Return: soluble

Okay, now this sequence:
Enquiry: Which soluble on expression in E. coli is listed for `MVPRTEIVAIEYGTPIEELKARFIESGISKIIVYKENIDNIIGYIHSSEMFREQTDWTKSVRQLPIAPETMGAHKLMKLFMQQKKSLAVVVDEFGGTSGIVALEDLVEEIFGEIEDEHDTTSYIA` ?
Return: not soluble
